Origin of measurements: PubChem BioAssay (NCATS)

# System: CP329
# Assay: qHTS profiling for inhibitors of Plasmodium falciparum proliferation (AID 504749); also: nearly all actives have a fitted effect of over 60% in size
# Assay Setup: P. falciparum in erythrocytes, SYBR Green DNA, 72 h; series mostly up to 28.7 µM
Inconclusive results are not listed. Calls of active or inactive are those of the source. Calls follow the shape of the dose curve; as a rule, active = well fitted inhibition curve with a large enough effect; inconclusive = small, poorly fitted or top-dose-only effect; inactive = flat fitted curve, though single readings scatter.
Parameter: outcome

CCN(CC)CC1CCCCN1CC(=O)N1c2ccccc2C(=O)Nc2cccnc21 (stereo not drawn) : inactive
CC(C)=CCC/C(C)=C/CO : inactive
O=C(O)c1cc(=O)c2ccccc2o1 : inactive

###

# Assay: Primary qHTS for inhibitors of La Crosse Virus (LACV) - induced cell death in SH-SY5Y cells (AID 1508616);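 also: top concentration of the series differs between compounds; 0% = infected DMSO wells and 100% = uninfected DMSO wells; higher means more rescue of cells from virus-induced death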
# Assay Setup: SH-SY5Y LACV cytopathicity rescue, ATP luminescence, 6 d; series mostly up to 4.29 µM
Inconclusive results are not listed. Active and inactive are the calls of the source. Calls follow the shape of the dose curve; as a rule, active = well fitted inhibition curve with a large enough effect; inconclusive = small, poorly fitted or top-dose-only effect; inactive = no such curve, though single readings can be large or run the other way.
Parameter: activity change

O=C1c2cccc(O)c2C(=O)c2c(O)cccc21 : inactive
CC(=O)N[C@@H](Cc1ccc(O)cc1)C(=O)O : inactive
O=C(O)Cc1ccc(CCNS(=O)(=O)c2ccc(Cl)cc2)cc1 : inactive
Nc1ccc(C(=O)Oc2ccccc2)c(O)c1 : inactive
Cc1cc(O)cc(C)c1Cl : inactive

Give the measured activity change of NCC1CCC(C(=O)Oc2ccc(CCC(=O)O)cc2)CC1 (configuration not stated) .
inactive

# get_value(readout='activity change', item= CC(CN(C)C)C(C)(O)Cc1ccc(Cl)cc1 (configuration not stated) )
inactive

###

# Assayed System: Luciferin 4-monooxygenase (Photinus pyralis) (UniProt P08659)
# Sequence (P08659 whole entry, looked up): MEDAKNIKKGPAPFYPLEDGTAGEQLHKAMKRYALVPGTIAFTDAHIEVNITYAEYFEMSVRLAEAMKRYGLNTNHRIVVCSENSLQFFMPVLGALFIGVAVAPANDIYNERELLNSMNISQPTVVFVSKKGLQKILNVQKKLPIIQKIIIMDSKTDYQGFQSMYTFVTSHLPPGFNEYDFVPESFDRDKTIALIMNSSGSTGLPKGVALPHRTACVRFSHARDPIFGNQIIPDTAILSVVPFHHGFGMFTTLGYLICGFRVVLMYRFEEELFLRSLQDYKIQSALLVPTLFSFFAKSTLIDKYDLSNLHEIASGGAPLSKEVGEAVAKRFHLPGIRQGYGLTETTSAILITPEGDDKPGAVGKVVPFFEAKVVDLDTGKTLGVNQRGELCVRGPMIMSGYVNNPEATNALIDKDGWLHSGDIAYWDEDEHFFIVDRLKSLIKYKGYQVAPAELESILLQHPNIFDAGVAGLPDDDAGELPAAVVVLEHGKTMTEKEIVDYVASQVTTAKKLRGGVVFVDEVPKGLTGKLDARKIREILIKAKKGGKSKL
# Assay: Biochemical firefly luciferase enzyme assay for NPC (AID 624030);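 also: purified P. pyralis luciferase at 10 nM with luciferin and ATP substrate; 0% = DMSO and -100% = full luciferase inhibition by PTC124 control; nearly all actives have a fitted effect of over 70% in size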
# Assay Setup: purified P. pyralis luciferase, luminescence, 5 min; series mostly up to 58.6 µM
Records with an inconclusive call do not appear. Activity calls are given as the source filed them. Calls come from the whole dose curve; as a rule, active = well fitted inhibition curve with a large enough effect; inconclusive = small, poorly fitted or top-dose-only effect; inactive = flat fitted curve, though single readings scatter.
Parameter: outcome

COc1ccccc1OC(=O)Oc1ccccc1OC : inactive
CCc1cccc(CC)c1NC(=O)CN(CC(=O)O)CC(=O)O : inactive
CN/C(=C\[N+](=O)[O-])NCCSCc1csc(CN(C)C)n1 : inactive
CC(=O)Oc1cccc(O)c1 : inactive
O=C1c2ccccc2S(=O)(=O)N1CCCCN1CCN(c2ncccn2)CC1 : inactive

// moving on: another record for outcome
So what's the measured outcome for this one? `O=C(O)COC(=O)Cc1ccccc1Nc1c(Cl)cccc1Cl`
inactive

###

# Assay: qHTS assay for small molecule agonists of the antioxidant response element (ARE) signaling pathway measured by Nrf2-dependant transcriptional activity - cell viability counter screen (AID 720653); also: % is scaled to controls: 0 for no effect and ±100 for the full control effect
# Assay Setup: ARE-bla HepG2 viability, CellTiter-Glo ATP luminescence, 16 h; active compounds read low
Records with an inconclusive call do not appear.
Here the recorded max response is given for each entry.
Could you give me the number in %? Just the number is fine.

These solved cases illustrate the format of a correct answer.
CCCCOC(=O)c1ccc(N)cc1 : -19.9
CC(=O)NS(=O)(=O)c1ccc(N)cc1 : -11.8
O=C1C(c2[nH]c3ccccc3c2O)=Nc2ccccc21 : -0.733
CC(C)=CCC/C(C)=C/CO : 4.56
Cc1cc(O)cc(C)c1Cl : 0.227

Query (compound): `CCCCCCCCCCCCCCCCCCO` ; field requested: max response
2.19

Given `CC(=O)Nc1ccccc1` , state its recorded max response.
-3.41

###

# Assay: qHTS Assay for Lipid Storage Modulators (AID 1519); also: % is scaled to controls: 0 for no effect and ±100 for the full control effect
# Assay Setup: Drosophila S3 cells, BODIPY lipid droplet/cell ratio, laser cytometry; at 25.7 µM (top of the series); cells loaded with oleic acid
# Experimental: NIH Molecular Libraries Probe Production Centers Network [MLPCN] NIH Chemical Genomics Center [NCGC] Assay Submitter (PI): Beller, Mathias; Max-Planck-Institut fur Biophysikalische Chemie […] We dispensed 4 uL of cells at 1.25 x 10^6 cells/mL into LoBase Aurora COC 1,536-well plates (black walled, clear bottom) with a bottle-valve solenoid-based dispenser (Aurora) to obtain 5,000 cells/well. […] The ratio of the total intensity in PMT channel 1 over total intensity of channel 3 was also calculated. […]
Records with an inconclusive call do not appear.
activity change, negative = inhibition reference
Supply the numeric figure in %, leaving out any unit text.

Sample answers from the record:
Cn1c(=O)c2c(ncn2CCO)n(C)c1=O : -0.0249
Cc1cc(NC(=O)C2=C(O)c3ccccc3S(=O)(=O)N2C)no1 : -0.235
NC(N)=NCCN1CCCCCCC1 : -2.42

Recorded activity change, negative = inhibition for `CCc1cccc(CC)c1NC(=O)CN(CC(=O)O)CC(=O)O` , please?
1.96

Dear colleague, I am looking for the recorded activity change, negative = inhibition of the following compound: `CCN(CC)CCOC(=O)C(c1ccccc1)c1ccccc1`
-0.714

// activity change, negative = inhibition lookup, key: `Cc1c(N(C)C)c(=O)n(-c2ccccc2)n1C`
-4.33

###

# System: ATS95
# Assay: qHTS profiling for inhibitors of Plasmodium falciparum proliferation (AID 504749); also: nearly all actives have a fitted effect of over 60% in size
# Assay Setup: P. falciparum in erythrocytes, SYBR Green DNA, 72 h; series mostly up to 28.7 µM
Inconclusive results are not listed. Active and inactive are the calls of the source. The call rests on the fitted dose curve; in most records, active means well fitted inhibition curve with a large enough effect; inconclusive means small, poorly fitted or top-dose-only effect; inactive means flat fitted curve, though single readings scatter.
Parameter: outcome

OCc1ccc(Cl)cc1Cl : inactive
CCCOC(=O)c1ccc(N)cc1 : inactive
NS(=O)(=O)c1cc(-c2nn[nH]n2)c(NCc2cccs2)cc1Cl : inactive

###

# Test system: CP237
# Assay: qHTS profiling for inhibitors of Plasmodium falciparum proliferation (AID 504749); also: nearly all actives have a fitted effect of over 60% in size
# Assay Setup: P. falciparum in erythrocytes, SYBR Green DNA, 72 h; series mostly up to 28.7 µM
Results filed as inconclusive are left out. The source made the active and inactive calls. The call rests on the fitted dose curve; in most records, active means well fitted inhibition curve with a large enough effect; inconclusive means small, poorly fitted or top-dose-only effect; inactive means flat fitted curve, though single readings scatter.
Pick from Y for active, N for inactive when you respond.

I'd appreciate the recorded outcome for `O=C(Cn1ccnc1[N+](=O)[O-])NCCO` from this test.
N

Can you look up the reported call for `Cc1cccc(C(=O)O)c1O` for me?
N

Identify the outcome logged in this assay for the molecule shown: `O=C(O)CCC(=O)O`
N

So what was the verdict on `COc1cc(C(=O)NCCCCCC(=O)O)cc(OC)c1OC` in this test?
N

Lab log entry: `CCOC(=O)c1cccnc1` — outcome as called in the assay?
N

Recorded test outcome, item `Cc1cc(=O)[nH]c(=S)[nH]1`
N

Just curious, what result did `CN(C(=O)c1c(O)c2ccccc2n(C)c1=O)c1ccccc1` get here?
N

Look up the recorded call for `Cc1c(NC(C)C)c(=O)n(-c2ccccc2)n1C` in this test.
N

So what was the verdict on `CCN(CC)S(=O)(=O)c1ccc(C(=O)O)cc1` in this test?
N

Status in this test for CC(CN(C)C)C(C)(O)Cc1ccc(Cl)cc1 (configuration not stated) ?
Y

Hi, do you know how `Nc1ncnc2c1ncn2[C@@H]1O[C@H](COP(=O)(O)O)[C@@H](O)[C@H]1O` came out in this test?
N

###

# System: CP238
# Assay: qHTS profiling for inhibitors of Plasmodium falciparum proliferation (AID 504749); also: nearly all actives have a fitted effect of over 60% in size
# Assay Setup: P. falciparum in erythrocytes, SYBR Green DNA, 72 h; series mostly up to 28.7 µM
Results filed as inconclusive are left out. Active and inactive are the calls of the source. Calls come from the whole dose curve; as a rule, active = well fitted inhibition curve with a large enough effect; inconclusive = small, poorly fitted or top-dose-only effect; inactive = flat fitted curve, though single readings scatter.
Parameter: outcome

Before answering, review these 8 worked examples.
CCCCC1(COC(=O)CCC(=O)O)C(=O)N(c2ccccc2)N(c2ccccc2)C1=O : inactive
O=C(O)Cc1cn(-c2ccccc2)nc1-c1ccc(Cl)cc1 : inactive
O=C(O)CNC(=O)c1ccccc1I : inactive
Cc1ccccc1N=Nc1ccc(N=Nc2c(O)ccc3ccccc23)c(C)c1 : inactive
O=C(CCBr)N1CCN(C(=O)CCBr)CC1 : inactive
Cc1c(NC(C)C)c(=O)n(-c2ccccc2)n1C : inactive
C[C@@H]1CCC[C@H](C)N1 : inactive
CCCCCCCC(=O)OCC(COC(=O)CCCCCCC)OC(=O)CCCCCCC : inactive

Could you tell me which outcome is on file for `CCOC(=O)c1cccnc1` ?
inactive

###

# Tested on: P94_40
# Assay: qHTS profiling for inhibitors of Plasmodium falciparum proliferation (AID 504749); also: nearly all actives have a fitted effect of over 60% in size
# Assay Setup: P. falciparum in erythrocytes, SYBR Green DNA, 72 h; series mostly up to 28.7 µM
Inconclusive results are not listed. Calls of active or inactive are those of the source. Calls come from the whole dose curve; as a rule, active = well fitted inhibition curve with a large enough effect; inconclusive = small, poorly fitted or top-dose-only effect; inactive = flat fitted curve, though single readings scatter.
# valid calls are T for active, F for inactive; nothing else

Cc1cc(OI)c(C(C)C)cc1-c1cc(C(C)C)c(OI)cc1C : T
O=C(CN1CCNCC1)NC1CCCCC1 : F
O=c1[nH]cnc2nc[nH]c12 : F
CC(CSC(=O)c1ccccc1)C(=O)N1C[C@@H](Sc2ccccc2)C[C@H]1C(=O)O (stereo partly specified) : F
CN1CCN(C(=O)C2CCCCC2)CC1 : F
CCOc1ccc(C(=O)OCCN(CC)CC)cc1 : F

In this assay, the call recorded for CC(O)CCCCn1c(=O)c2c(ncn2C)n(C)c1=O (stereo unspecified) was what?
F

Please share the test call associated with CC(C(=O)O)c1ccc2c(c1)Cc1cccnc1O2 (stereo unspecified) .
F

###

# Assay: A High-Content qHTS Against Drug Library for the Identification of Small Molecules that Inhibit DYT1 Early Onset Primary Dystonia-Associated Cell Pathology (AID 1645839)
# Assay Setup: HEK293 Flp-In EGFP-delE TorsinA, punctate imaging, 48 h; series mostly up to 46.1 µM
Results filed as inconclusive are left out. Calls of active or inactive are those of the source. Calls follow the shape of the full dose curve.
Parameter: % pathology change, negative = correction

O=C(NCN1CCOCC1)c1cnccn1 : inactive
COC(=O)c1cccnc1 : inactive
Cc1ccc(C(C)C)c(O)c1 : inactive
